# target.system: Cyclin-dependent kinase 9 (Homo sapiens, UniProt P50750)
# Sequence (P50750 whole entry): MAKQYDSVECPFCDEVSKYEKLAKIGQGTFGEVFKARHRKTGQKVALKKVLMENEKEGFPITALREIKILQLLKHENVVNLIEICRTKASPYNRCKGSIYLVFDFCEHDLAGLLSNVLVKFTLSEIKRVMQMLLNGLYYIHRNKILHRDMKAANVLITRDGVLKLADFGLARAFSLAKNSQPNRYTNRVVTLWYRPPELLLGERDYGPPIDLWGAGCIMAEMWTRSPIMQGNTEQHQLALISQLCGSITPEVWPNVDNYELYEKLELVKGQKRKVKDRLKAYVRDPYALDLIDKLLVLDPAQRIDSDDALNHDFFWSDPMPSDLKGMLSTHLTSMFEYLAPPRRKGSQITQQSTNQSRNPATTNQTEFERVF
# experiment.notes: Inhibition of CDK9 (unknown origin) incubated for 10 mins
IC50 overview
value.kind: IC50 (µM)

>>> reported_result("CCCCNc1nc(N)nc(-c2cc(Cl)ccc2O)n1")
0.214
>>> reported_result("CCNc1nc(N)nc(-c2cc(Cl)ccc2O)n1")
0.335

* * *

inhibition overview
# target.system: UniProtKB P50750
# experiment.notes: Inhibition of CDK9 (unknown origin) at 20 uM incubated for 10 mins relative to control
value.kind: inhibition

>>> reported_result("CCNc1nc(N)nc(-c2cc(Cl)ccc2O)n1")
"93.7%"
>>> reported_result("Nc1nc(Nc2ccccc2)nc(-c2cc(Cl)ccc2O)n1")
"88.4%"
>>> reported_result("Nc1nc(NCCc2ccccc2)nc(-c2cc(Cl)ccc2O)n1")
"92.2%"
>>> reported_result("O=C(Cn1cc(Br)c(=O)n(CC(=O)Nc2ccc(Br)cn2)c1=O)Nc1ccc(Br)cn1")
"76.4%"
>>> reported_result("CCCCNc1nc(N)nc(-c2cc(Cl)ccc2O)n1")
"93.6%"
>>> reported_result("O=C(NCCc1c[nH]c2ccc(Cl)cc12)c1cc(-c2cccnc2)n[nH]1")
"22.7%"

* * *

# Tested on: MDA-MB-231
# experiment.notes: Antiproliferative activity against human MDA-MB-231 cells assessed as inhibition of cell viability incubated for 48 hrs by CCK8 method
# Assay type: functional, cell-based
# condition.context: MDA-MB-231, 48 h
pIC50: −log10 of the molar value.
Label Met when pIC50 is at or above 5; otherwise label Not met.

>>> assigned_category("CCCCNc1nc(N)nc(-c2cc(Cl)ccc2O)n1")
"Not met"
>>> assigned_category("O=C(NCCc1c[nH]c2ccc(Cl)cc12)c1cc(-c2cccnc2)n[nH]1")
"Not met"
>>> assigned_category("CN1CC[C@H](c2c(O)cc(O)c3c(=O)cc(-c4ccccc4Cl)oc23)[C@H](O)C1")
"Met"
>>> assigned_category("Nc1nc(NCCc2ccccc2)nc(-c2cc(Cl)ccc2O)n1")
"Not met"
>>> assigned_category("CCNc1nc(N)nc(-c2cc(Cl)ccc2O)n1")
"Not met"

* * *

# Test system: HeLa
# experiment.notes: Antiproliferative activity against human HeLa cells assessed as inhibition of cell viability incubated for 48 hrs by CCK8 method
# Format: functional, cell-based
pIC50: −log10 of the molar value.
pIC50 overview
value.kind: pIC50

>>> reported_result("O=C(NCCc1c[nH]c2ccc(Cl)cc12)c1cc(-c2cccnc2)n[nH]1")
4.53
>>> reported_result("O=C(Cn1cc(Br)c(=O)n(CC(=O)Nc2ccc(Br)cn2)c1=O)Nc1ccc(Br)cn1")
5.18
>>> reported_result("Nc1nc(NCCc2ccccc2)nc(-c2cc(Cl)ccc2O)n1")
4.60
>>> reported_result("CCCCNc1nc(N)nc(-c2cc(Cl)ccc2O)n1")
4.86
>>> reported_result("CCNc1nc(N)nc(-c2cc(Cl)ccc2O)n1")
5.13
>>> reported_result("Nc1nc(Nc2ccccc2)nc(-c2cc(Cl)ccc2O)n1")
5.60
>>> reported_result("CN1CC[C@H](c2c(O)cc(O)c3c(=O)cc(-c4ccccc4Cl)oc23)[C@H](O)C1 [ALVOCIDIB]")
6.82
